EXPERIMENT DESCRIPTION: Drug degradation in buffer at 37 degC at pH 6.8 after 3 hrs in presence of pancreatin
Format: physicochemical
TEST CONTEXT: buffer with pancreatin, read-out: Drug degradation
MEASURE: metabolised at 3 h (%)

> print(dat)
                        mol             measure  observed.measurement
1    CC(=O)n1ncc2c(O)ncnc21  metabolised at 3 h                   100
2  CCCC(=O)n1ncc2c(O)ncnc21  metabolised at 3 h                   100
3   CCC(=O)n1ncc2c(O)ncnc21  metabolised at 3 h                   100

meta.source: ChEMBL document CHEMBL2434933
